# assay_target: Neuropeptide Y receptor type 5 (Mus musculus, UniProt O70342)
# Sequence (O70342 whole entry): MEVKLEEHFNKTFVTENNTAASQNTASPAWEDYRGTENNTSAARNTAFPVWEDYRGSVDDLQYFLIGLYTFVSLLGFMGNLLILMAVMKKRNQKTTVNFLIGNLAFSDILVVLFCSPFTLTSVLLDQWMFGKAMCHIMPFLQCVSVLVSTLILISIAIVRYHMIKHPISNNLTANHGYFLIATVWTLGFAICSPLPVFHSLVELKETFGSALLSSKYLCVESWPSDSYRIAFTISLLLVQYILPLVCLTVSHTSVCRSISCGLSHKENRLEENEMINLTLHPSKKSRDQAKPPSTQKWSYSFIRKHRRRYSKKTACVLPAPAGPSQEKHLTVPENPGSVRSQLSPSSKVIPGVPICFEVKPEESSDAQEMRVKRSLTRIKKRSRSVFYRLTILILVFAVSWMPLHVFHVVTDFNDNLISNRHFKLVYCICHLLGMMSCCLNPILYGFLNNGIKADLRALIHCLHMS
Record set: log10(IC50) | Neuropeptide Y receptor type 5 (Mus musculus, UniProt O70342) | literature, multiple sources.
The common logarithm of IC50 in nM is what is listed.

Below, each entry is followed by its recorded log10(IC50) result.
{"molecule": "CCCS(=O)(=O)c1ccc2nc(-c3ccccc3)[nH]c2c1", "recorded_number": 3.67}
{"molecule": "Cc1ccccc1C(=O)c1csc(NCCCNS(=O)(=O)c2cc(C(F)(F)F)ccc2Cl)n1", "recorded_number": 0.95}
{"molecule": "O=S(=O)(c1ccc2nc(N3CCOC(c4ccccc4)C3)[nH]c2c1)C(F)(F)F (stereo not given)", "recorded_number": -0.14}
{"molecule": "CCS(=O)(=O)c1ccc2[nH]c(Oc3cccc(-c4ccccc4)c3)nc2c1", "recorded_number": 0.98}
{"molecule": "COc1ccc(OC)c(S(=O)(=O)NCCCNc2ncc(C(=O)c3ccccc3C)s2)c1", "recorded_number": 0.20}
{"molecule": "CCS(=O)(=O)c1ccc2nc(Cc3ccc(-c4ccccc4)cc3)[nH]c2c1", "recorded_number": 2.05}

Below is a list of molecules. For each, state its recorded log10(IC50).
1. CCCS(=O)(=O)c1ccc2nc(C3CCC(=O)N(c4ccccc4)C3)[nH]c2c1 (stereo not given)
2. CCS(=O)(=O)c1ccc2nc(-c3cc(-c4ccccc4)ccc3Cl)[nH]c2c1
3. CCS(=O)(=O)c1ccc2nc(OCc3cccc(Cl)c3)[nH]c2c1
4. O=c1ccc(-c2nc3cc(S(=O)(=O)CC(F)(F)F)ccc3[nH]2)cn1-c1ccccc1
5. CCS(=O)(=O)c1ccc2[nH]c(C(=O)c3ccc(-c4ccccc4)cc3)nc2c1
6. COc1ccc(OC)c(S(=O)(=O)NCCCNc2nc(C(=O)c3ccccc3C)cs2)c1

2.29
1.49
1.91
-0.54
0.42
1.23

* * *

Target or system Neuropeptide Y receptor type 5 (Mus musculus, UniProt O70342); metric pIC50; compiled from varied reports.
# assay_target: Neuropeptide Y receptor type 5 (Mus musculus, UniProt O70342)
# Sequence (O70342 whole entry): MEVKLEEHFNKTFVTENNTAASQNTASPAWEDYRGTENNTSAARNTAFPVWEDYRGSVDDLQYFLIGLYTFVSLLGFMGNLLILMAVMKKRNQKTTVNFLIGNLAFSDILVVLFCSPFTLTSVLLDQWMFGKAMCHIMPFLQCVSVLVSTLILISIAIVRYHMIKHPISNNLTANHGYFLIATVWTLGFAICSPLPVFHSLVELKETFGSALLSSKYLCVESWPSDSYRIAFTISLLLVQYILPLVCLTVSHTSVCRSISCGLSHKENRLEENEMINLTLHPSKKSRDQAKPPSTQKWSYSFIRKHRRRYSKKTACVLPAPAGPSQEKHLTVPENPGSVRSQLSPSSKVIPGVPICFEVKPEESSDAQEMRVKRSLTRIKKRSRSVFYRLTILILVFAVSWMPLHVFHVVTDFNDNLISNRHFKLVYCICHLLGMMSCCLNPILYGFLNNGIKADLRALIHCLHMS
Answers are plain numbers, as −log10 of the molar value.

Solved cases (5 shown):
{"compound": "CCCS(=O)(=O)c1ccc2[nH]c(C3CCOC(c4ccccc4)C3)nc2c1 (mixture of isomers)", "recorded_number": 7.76}
{"compound": "CC(C)(C(F)(F)F)S(=O)(=O)c1ccc2nc(N3CCOC(c4ccccc4)C3)[nH]c2c1 (configuration not stated)", "recorded_number": 8.84}
{"compound": "CCS(=O)(=O)c1ccc2nc(N3CCOC(c4ccccc4)C3)[nH]c2c1 (configuration not stated)", "recorded_number": 9.37}
{"compound": "Cc1ccccc1C(=O)c1cnc(NCCCNS(=O)(=O)c2cc(C(F)(F)F)ccc2Cl)s1", "recorded_number": 9.07}
{"compound": "CCS(=O)(=O)c1ccc2[nH]c(-c3cccc(-c4ccccc4)n3)nc2c1", "recorded_number": 7.41}

Items follow; give pIC50 for each.
1. CCS(=O)(=O)c1ccc2[nH]c(-c3cc(-c4ccccc4)ccc3F)nc2c1
2. CCCS(=O)(=O)c1ccc2[nH]c(-c3cccc(-c4ccccc4)c3)nc2c1
3. Cc1ccccc1C(=O)c1cnc(NCCCNS(=O)(=O)c2ccc(F)cc2)s1
4. CCS(=O)(=O)c1ccc2[nH]c(-c3ccnc(-c4ccccc4)c3)nc2c1
5. CCS(=O)(=O)c1ccc2[nH]c(N3CCOC(c4ccc(C)cc4)C3)nc2c1 (configuration not stated)
6. Cc1ccccc1C(=O)c1csc(NCCCNS(=O)(=O)c2cccc(F)c2)n1

[9.27, 9.37, 5.00, 9.51, 9.10, 7.19]

Reported pIC50, compound "CCS(=O)(=O)c1ccc2nc(-c3cccc(-c4ccccc4)c3F)[nH]c2c1" : ____
8.57
